Listed here: items and their measured PBM E-score.
systemName: Ecm22 (UniProt Q05958)
Sequence: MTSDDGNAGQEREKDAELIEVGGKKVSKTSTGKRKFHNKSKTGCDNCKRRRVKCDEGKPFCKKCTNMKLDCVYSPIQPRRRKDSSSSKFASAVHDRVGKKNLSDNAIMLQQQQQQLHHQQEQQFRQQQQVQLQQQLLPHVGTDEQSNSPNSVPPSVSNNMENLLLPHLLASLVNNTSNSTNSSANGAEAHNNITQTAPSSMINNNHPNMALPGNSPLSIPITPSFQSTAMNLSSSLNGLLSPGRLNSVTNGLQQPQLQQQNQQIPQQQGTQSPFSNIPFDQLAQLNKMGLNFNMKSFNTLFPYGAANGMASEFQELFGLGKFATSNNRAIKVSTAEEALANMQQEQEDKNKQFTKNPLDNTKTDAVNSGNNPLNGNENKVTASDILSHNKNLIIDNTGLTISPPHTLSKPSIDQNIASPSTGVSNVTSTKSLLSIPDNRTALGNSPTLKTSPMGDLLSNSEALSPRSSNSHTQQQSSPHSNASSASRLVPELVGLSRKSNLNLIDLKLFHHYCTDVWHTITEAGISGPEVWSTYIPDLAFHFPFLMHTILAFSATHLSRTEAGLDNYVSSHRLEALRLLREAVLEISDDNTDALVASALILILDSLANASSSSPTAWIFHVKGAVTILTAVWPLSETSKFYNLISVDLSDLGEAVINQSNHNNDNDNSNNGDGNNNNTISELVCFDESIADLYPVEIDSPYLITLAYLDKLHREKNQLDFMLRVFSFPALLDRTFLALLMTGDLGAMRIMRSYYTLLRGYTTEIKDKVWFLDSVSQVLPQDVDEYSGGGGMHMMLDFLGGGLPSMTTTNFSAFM
testSummary: PBM E-score (8-mer binding enrichment) (E-score (-0.5 to 0.5)); higher = stronger / more preferred TF binding
assayConditions: protein concentration: 200 nM; construct: GST-full length
Over roughly 33,000 sequences, “E-score (-0.5 to 0.5)” has its median near -0.041; the highest 2% begin near 0.37. Many of the other results were omitted from the sample, so the highest values are more common in it than they were.
// keep it numeric: no unit symbol after the value

| monomerSequence | PBM E-score |
| --- | --- |
| ACAATCCT | -0.0917 |
| GATACGCA | 0.231 |
| AAATCTGA | -0.168 |
| ACACGATC | 0.0695 |
| ACGAGTTA | 0.422 |

stdin: Complete the entry with PBM E-score for ACCCGAAA
stdout: 0.14

stdin: Using known records, supply PBM E-score for ATGCTGAG
stdout: -0.31

stdin: // Input: AAGGCGCA . Output its PBM E-score only.
stdout: -0.0313

stdin: Identify the reported PBM E-score for the following entry. CCGTATAA
stdout: 0.473

stdin: Specify measured PBM E-score for CTGTATAA .
stdout: 0.0431

stdin: Retrieve PBM E-score measured for CGACGGGA and print it.
stdout: 0.227

stdin: Give the value of PBM E-score reported for the following: AGTGACAT
stdout: -0.283

stdin: Give reported PBM E-score value for AACGCCGC
stdout: -0.00584

stdin: Supply reported PBM E-score belonging to this sequence: GCGTATAC
stdout: 0.406

stdin: Annotate the sequence GCGAGTTA with its measured PBM E-score.
stdout: 0.191

stdin: Return value of PBM E-score for input ATGTATAC , no commentary.
stdout: 0.179

stdin: Name the recorded PBM E-score of the item GCGGCACC in your answer.
stdout: -0.0132

stdin: For the sequence GTCGTTCA , give its reported PBM E-score.
stdout: 0.448

stdin: Note down PBM E-score recorded for AGGGACGG
stdout: -0.256

stdin: Give the measured PBM E-score for AGTCGTAG
stdout: 0.304
